Recorded values, source ChEMBL document CHEMBL1126089.

Listed next: entries and their corresponding A2 selectivity.
# PROTOCOL: Selectivity as ratio of IC50 for A1 adenosine receptor compared to EC50 for A2 adenosine receptor
Reply with just the number.

// solved cases for A2 selectivity follow
CCCC#Cc1nc(N)c2ncn([C@@H]3O[C@H](CO)[C@@H](O)[C@H]3O)c2n1
24
CCCC#Cc1nc(N)c2ncn([C@@H]3O[C@H](C(=O)NCC)[C@@H](O)[C@H]3O)c2n1
44

Quick check: A2 selectivity of CCCCCC#Cc1nc(N)c2ncn(C3O[C@H](C(=O)NCC)[C@@H](O)[C@H]3O)c2n1 (stereo partly drawn) ?
34
